- Test system: HIV-1 (H9/IIIB strain)
- Experiment Notes: Multiple round HIV-1 infection assay in MT4-GFP cells (wild type cell assay, Viking)
- Type: cell-based
- Particulars: Human immunodeficiency virus 1, IIIB, MT4-GFP cells infected with HIV-1 H9/IIIB; 100% normal human serum condition; inhibition of reproductive ratio R0, ~48 h and ~72 h post-infection; read-out: WILD TYPE CELL ASSAY Viking IP (100% NHS)
- Protocol: The antiviral activity of the Examples herein was assessed in an assay that measures the rate of replication of HIV in cell culture, and performed according to the following procedure. HIV-1 replication was monitored using MT4-gag-GFP clone D3 (hereafter designated MT4-GFP), which are MT-4 cells modified to harbor a GFP reporter gene, the expression of which is dependent on the HIV-1 expressed proteins tat and rev. […]
Readout Label: pIC50
Quick note: pIC50 means taking -log10 of the concentration in moles per liter.

Example compounds with recorded pIC50:
Compound: CCN1CC2(COC)CC(O)c3c(C(=O)NCc4c(F)cc(F)cc4F)c(=O)c(O)c(n32)C1=O (single isomer, unassigned)
Number: 7.02

Compound: CN1CC2(C)CC(O)c3c(C(=O)NCc4cccc(Cl)c4F)c(=O)c(O)c(n32)C1=O (stereo not drawn)
Number: 6.94

Next up:
q: Name the reported pIC50 value associated with the compound CN1CC2(C)CC(O)c3c(C(=O)NCc4ccc(F)cc4)c(=O)c(O)c(n32)C1=O (stereo not drawn)
a: 6.92

###

- Tested on: HIV-1 (H9/IIIB strain)
- Experiment Notes: Multiple round HIV-1 infection assay in MT4-GFP cells (wild type cell assay, Viking)
- Format: cell-based
- Particulars: Human immunodeficiency virus 1, IIIB, MT4-GFP cells infected with HIV-1 H9/IIIB; 0% NHS condition (RPMI 1640); inhibition of reproductive ratio R0, ~48 h and ~72 h post-infection; read-out: WILD TYPE CELL ASSAY Viking IP (0% NHS)
This listing pairs molecules with measured IC50.
Please don't drop the unit; write it after the number.

Molecule: CCC12CC(O)c3c(C(=O)NCc4c(F)ccc(Cl)c4F)c(=O)c(O)c(n31)C(=O)N(C)C2 (single isomer, unassigned) [Compound 53]
IC50: 2.6 nM

Molecule: CCN1CC2(COC)CC(O)c3c(C(=O)NCc4c(F)cc(F)cc4F)c(=O)c(O)c(n32)C1=O (centres unmarked) [Compound 63]
IC50: 2.9 nM

Molecule: CCN1CC2(COC)CC(O)c3c(C(=O)NCc4c(F)cc(F)cc4F)c(=O)c(O)c(n32)C1=O (single isomer, unassigned) [Compound 61]
IC50: 2.3 nM

Molecule: CCC12CC(O)c3c(C(=O)NCc4c(F)ccc(F)c4F)c(=O)c(O)c(n31)C(=O)N(C)C2 (centres unmarked) [Compound 51]
IC50: 1.7 nM

Molecule: CN1CC2(C)CC(O)c3c(C(=O)NCc4ccc(F)cc4)c(=O)c(O)c(n32)C1=O (centres unmarked) [Compound 23]
IC50: 1.9 nM

Molecule: CN1CC2(C)CC(O)c3c(C(=O)NCc4cccc(Cl)c4F)c(=O)c(O)c(n32)C1=O (single isomer, unassigned) [Compound 33]
IC50: 3 nM

q: What value of IC50 has been recorded for this entry: CN1CC2(C)CC(O)c3c(C(=O)NCc4c(F)ccc(Cl)c4F)c(=O)c(O)c(n32)C1=O (single isomer, unassigned) [Compound 29]
a: 1.9 nM

q: Entry CCC12CC(O)c3c(C(=O)NCc4c(F)cc(F)cc4F)c(=O)c(O)c(n31)C(=O)N(C)C2 (centres unmarked) [Compound 47] : reported IC50 = ?
a: 2.3 nM

Cited source for all entries: patent US20210115044A1
